molecular target: hMC4-R (Homo sapiens (Human), UniProt P32245); assay: Competitive inhibition binding assay using [I125]-NDP-α-MSH, hMC4-R; conditions: membranes of HEK-293 cells expressing recombinant hMC4-R, read-out: MC4-R Ki
Sequence (P32245 whole entry): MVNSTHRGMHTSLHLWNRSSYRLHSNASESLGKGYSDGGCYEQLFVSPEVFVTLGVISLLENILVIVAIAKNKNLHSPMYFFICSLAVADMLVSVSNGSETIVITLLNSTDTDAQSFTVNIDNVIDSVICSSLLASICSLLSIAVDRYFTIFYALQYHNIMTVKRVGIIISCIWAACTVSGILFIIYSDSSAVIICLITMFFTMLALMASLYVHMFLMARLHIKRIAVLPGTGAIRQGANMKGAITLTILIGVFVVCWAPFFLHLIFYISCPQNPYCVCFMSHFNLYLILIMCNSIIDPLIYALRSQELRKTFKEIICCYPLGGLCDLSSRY
Positions of bridges follow the written chain, without caps; N, C: chain ends. Non-standard residues stand in square brackets, D forms with d. Residues, ends and D or L forms follow the SMILES beside them. dPhe(4-CN) = N#Cc1ccc(C[C@@H](N)C(=O)O)cc1; Orn = NCCC[C@H](N)C(=O)O
quantity: Ki (nM)

Answered examples (3):
1. CC(=O)N[C@@H](CCCNC(=N)N)C(=O)N[C@H]1CCC(=O)NCCC[C@@H](C(N)=O)NC(=O)[C@H](Cc2c[nH]c3ccccc23)NC(=O)[C@H](CCCNC(=N)N)NC(=O)[C@@H](Cc2ccc(C#N)cc2)NC(=O)[C@H](C)NC1=O [Example 41] (Ac-REA[dPhe(4-CN)]RW[Orn]-NH2; lactam 2-7) | 3
2. CC(=O)N[C@@H](CCCNC(=N)N)C(=O)N[C@H]1CCC(=O)NCCC[C@@H](C(N)=O)NC(=O)[C@H](Cc2c[nH]c3ccccc23)NC(=O)[C@H](CCCNC(=N)N)NC(=O)[C@@H](Cc2ccc(F)cc2)NC(=O)[C@H](CC(N)=O)NC1=O [Example 69] | 3
3. CC(=O)N[C@@H](CCCNC(=N)N)C(=O)N[C@H]1CCCNC(=O)CC[C@@H](C(N)=O)NC(=O)[C@H](Cc2c[nH]c3ccccc23)NC(=O)[C@H](CCCNC(=N)N)NC(=O)[C@@H](Cc2ccccc2C(F)(F)F)NC(=O)[C@H](CC(N)=O)NC1=O [Example 117] | 5

(A) CC(=O)N[C@@H](CCCNC(=N)N)C(=O)N[C@H]1CCC(=O)NCCC[C@@H](C(=O)O)NC(=O)[C@H](Cc2c[nH]c3ccccc23)NC(=O)[C@H](CCCNC(=N)N)NC(=O)[C@@H](Cc2ccccc2Cl)NC(=O)[C@H](CCCN)NC1=O [Example 49]
(B) CC(=O)N[C@@H](CCCNC(=N)N)C(=O)N[C@H]1CCC(=O)NCCC[C@@H](C(N)=O)NC(=O)[C@H](Cc2c[nH]c3ccccc23)NC(=O)[C@H](CCCNC(=N)N)NC(=O)[C@@H](Cc2ccccc2C)NC(=O)[C@H](CC(N)=O)NC1=O [Example 73]
(C) CC(=O)N[C@@H](CCCNC(=N)N)C(=O)N[C@H]1CCC(=O)NCCC[C@@H](C(N)=O)NC(=O)[C@H](Cc2c[nH]c3ccccc23)NC(=O)[C@H](CCCNC(=N)N)NC(=O)[C@@H](Cc2cc(F)cc(F)c2)NC(=O)[C@H](CC(N)=O)NC1=O [Example 76]
(D) COc1ccc(C[C@H]2NC(=O)[C@H](CCN)NC(=O)[C@@H](NC(=O)[C@H](CCCNC(=N)N)NC(C)=O)CCC(=O)NCCC[C@@H](C(N)=O)NC(=O)[C@H](Cc3c[nH]c4ccccc34)NC(=O)[C@H](CCCNC(=N)N)NC2=O)cc1OC [Example 25]
(E) CC(=O)N[C@@H](CCCNC(=N)N)C(=O)N[C@H]1CCC(=O)NCCC[C@@H](C(N)=O)NC(=O)[C@H](Cc2c[nH]c3ccccc23)NC(=O)[C@H](CCCNC(=N)N)NC(=O)[C@@H](Cc2ccc(C#N)cc2)NC(=O)[C@H](CCN)NC1=O [Example 7]
Please give the order of these compounds when sorted by Ki, largest value leading. Give your ranking as a list of the labels in the requested order.
D, C, A, B, E
(D: 35 nM, C: 20 nM, A: 8 nM, B: 4 nM, E: 0.833 nM)
